Task for the reader: assign each of the following sequences its reported Kd.
target: DDX43 KH-126 (UniProt Q9NXZ2)
Sequence: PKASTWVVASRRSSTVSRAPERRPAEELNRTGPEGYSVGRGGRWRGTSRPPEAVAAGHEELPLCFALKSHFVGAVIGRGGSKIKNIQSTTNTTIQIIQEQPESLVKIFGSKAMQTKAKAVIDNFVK
protocol-text: filter binding
setup-conditions: EMSA: 40 mM Tris pH 8.0, 0.5 mM MgCl2, 15 mM NaCl, 0.01% NP-40, 0.1 mM DTT, 1 mg/ml BSA, no ATP, ice 30 min (Fig 2A legend: RT); filter binding: 25 mM Tris pH …
Numbers only, in nM.

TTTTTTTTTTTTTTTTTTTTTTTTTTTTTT [dT30] = 2450

For every record below, what is its Kd?
1. UUUUUUUUUUUUUUUGGUGAUGGUGUAUUGAGUGGGAUGCAUGCA / UGCAUGCAUCCCACUCAAUACACCAUCACCUUUUUUUUUUUUUUU [forked dsRNA 30/15]
2. GAGCTACCAGCTACCCCGTATGTCAGAGAG [ssDNA 30-mer]
3. TTTTTTTTTTTTTTTGGTGATGGTGTATTGAGTGGGATGCATGCA / TGCATGCATCCCACTCAATACACCATCACCTTTTTTTTTTTTTTT [fork dsDNA 30/15]
4. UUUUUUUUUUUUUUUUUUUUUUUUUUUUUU [rU30]
5. GAGCUACCAGCUACCCCGUAUGUCAGAGAG [ssRNA 30-mer]

1. 2500
2. 1410
3. 1290
4. 1480
5. 3010
